The values you see were collected from patent US20250215104A1.

- System name: T1, cynomolgus soluble urokinase plasminogen activator receptor (suPAR) (cynomolgus, UniProt Q9GK78 23-303, limits assumed)
- T1 construct: Target antigen of the scFv off-rate screen; also called cynomolgus suPAR; cynomolgus uPAR
- T1 sequence (Q9GK78 23-303 limits assumed): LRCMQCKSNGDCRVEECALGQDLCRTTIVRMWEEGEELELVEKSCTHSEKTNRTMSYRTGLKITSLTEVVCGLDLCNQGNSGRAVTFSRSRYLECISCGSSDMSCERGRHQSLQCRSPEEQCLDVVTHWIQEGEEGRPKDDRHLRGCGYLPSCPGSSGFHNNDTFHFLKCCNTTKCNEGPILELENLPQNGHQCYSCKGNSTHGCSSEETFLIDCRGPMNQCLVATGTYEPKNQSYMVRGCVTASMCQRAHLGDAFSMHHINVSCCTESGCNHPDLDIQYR
- Assay summary: BLI (Octet) off-rate screen of scFv clones
Measured metric: koff (s⁻¹)
Numeric answer only, unit s⁻¹ assumed.

Request: # lookup: koff of suPAR_DB06_D06 (scFv, V domains shown) VH: QVQLVQSGAEVKKPGASVKVSCKASGYTFTNYYMHWVRQAPGQGLEWMGWIDPENGNTIYAQKFQGRVTMTRDTSTSTVYMELSSLRSEDTAVYYCARGYDVDWFVYWGQGTLVTVSS VL: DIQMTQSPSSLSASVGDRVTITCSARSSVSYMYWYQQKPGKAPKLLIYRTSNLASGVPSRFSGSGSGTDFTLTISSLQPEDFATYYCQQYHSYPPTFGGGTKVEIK
Result: 0.000261

Request: Which koff is listed for suPAR_DB06_C01 (scFv, V domains shown) VH: QVQLVQSGAEVKKPGASVKVSCKASGYTFTGYYMHWVRQAPGQGLEWMGWIDPSNGNTIYDQKFQGRVTMTRDTSTSTVYMELSSLRSEDTAVYYCARGYDVDWFVYWGQGTLVTVSS VL: DIQMTQSPSSLSASVGDRVTITCSARQSISYMYWYQQKPGKAPKLLIYRTSNLASGVPSRFSGSGSGTDFTLTISSLQPEDFATYYCQQYHSYPPTFGGGTKVEIK ?
Result: 1.49e-05

Request: Which koff reading was recorded for the binder suPAR_DB06_E06 (scFv, V domains shown) VH: QVQLVQSGAEVKKPGASVKVSCKASGDTSTSYYMHWVRQAPGQGLEWMGWIDHENGSTIYDQKFQGRVTMTRDTSTSTVYMELSSLRSEDTAVYYCARGYDVDWFVYWGQGTLVTVSS VL: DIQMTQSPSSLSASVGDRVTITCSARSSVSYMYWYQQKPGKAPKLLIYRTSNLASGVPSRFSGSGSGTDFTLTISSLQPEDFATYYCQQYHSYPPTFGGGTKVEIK ?
Result: 0.000319
